Listed next: entries and their corresponding Kd.
Molecular target: CaM (Bos taurus)
Construct: made in house; host or cells: E. coli BL21 (DE3)
Experiment: Pull-down assay with immobilized protein and LSM libraries
Type: binding, bovine
Conditions: H14 library; 1:2 stoichiometry assumed; read-out: Surface mapping KD (apparent)
Respond with the bare value in µM.

CC[C@H](C)[C@@H](CC(=O)N[C@H]1CCCC[C@@H]1C(=O)N[C@H]1CCCC[C@@H]1C(=O)N[C@H](CC(=O)N[C@H]1CCCC[C@@H]1C(N)=O)[C@@H](C)O)NC(=O)[C@H]1CCCC[C@@H]1N :: 51
CSCC[C@@H](CC(=O)N[C@H]1CCCC[C@@H]1C(N)=O)NC(=O)[C@H]1CCCC[C@@H]1NC(=O)[C@H]1CCCC[C@@H]1NC(=O)C[C@H](CCCNC(=N)N)NC(=O)[C@H]1CCCC[C@@H]1N :: 30
C[C@@H](CC(=O)N[C@H]1CCCC[C@@H]1C(=O)N[C@H]1CCCC[C@@H]1C(=O)N[C@@H](CCCCN)CC(=O)N[C@H]1CCCC[C@@H]1C(N)=O)NC(=O)[C@H]1CCCC[C@@H]1N :: 181

Using the record for `CC(C)[C@@H](CC(=O)N[C@H]1CCCC[C@@H]1C(N)=O)NC(=O)[C@H]1CCCC[C@@H]1NC(=O)[C@H]1CCCC[C@@H]1NC(=O)C[C@H](C)NC(=O)[C@H]1CCCC[C@@H]1N` , state its measured Kd. 42

Using the record for `CSCC[C@@H](CC(=O)N[C@H]1CCCC[C@@H]1C(=O)N[C@H]1CCCC[C@@H]1C(=O)N[C@H](CC(=O)N[C@H]1CCCC[C@@H]1C(N)=O)Cc1ccccc1)NC(=O)[C@H]1CCCC[C@@H]1N` , state its measured Kd. 2

Using the record for `NCCCC[C@@H](CC(=O)N[C@H]1CCCC[C@@H]1C(N)=O)NC(=O)[C@H]1CCCC[C@@H]1NC(=O)[C@H]1CCCC[C@@H]1NC(=O)C[C@H](CC(N)=O)NC(=O)[C@H]1CCCC[C@@H]1N` , state its measured Kd. 82

Using the record for `CSCC[C@@H](CC(=O)N[C@H]1CCCC[C@@H]1C(=O)N[C@H]1CCCC[C@@H]1C(=O)N[C@@H](C)CC(=O)N[C@H]1CCCC[C@@H]1C(N)=O)NC(=O)[C@H]1CCCC[C@@H]1N` , state its measured Kd. 16

Using the record for `C[C@@H](CC(=O)N[C@H]1CCCC[C@@H]1C(N)=O)NC(=O)[C@H]1CCCC[C@@H]1NC(=O)[C@H]1CCCC[C@@H]1NC(=O)C[C@H](Cc1ccccc1)NC(=O)[C@H]1CCCC[C@@H]1N` , state its measured Kd. 3

###

Biological target: S100B (Homo sapiens, UniProt P04271)
Construct: made in house; host or cells: Escherichia coli BL21(DE3)
Sequence (P04271 whole entry): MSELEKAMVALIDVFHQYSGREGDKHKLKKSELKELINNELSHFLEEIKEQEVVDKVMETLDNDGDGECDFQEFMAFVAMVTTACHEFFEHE
Experiment: Pull-down assay with immobilized protein and LSM libraries
Type: binding
Conditions: H14 probes selected for validation
Protocol: Pull-down assays with immobilized test proteins and foldameric LSM libraries were carried out. Proteins were equilibrated with LSM probes, and equilibrium bound fractions (FB) were determined from the unbound fractions measured by HPLC-MS methods. Hits were corrected with background binding of the resin. […] MS data analysis. […] Using these processing setups, all raw data files were reprocessed together and analyzed. […]
experimental readout: Affinity class of probe (high, medium, low) in pull-down

N=C(N)NCCC[C@@H](CC(=O)N[C@H]1CCCC[C@@H]1C(=O)N[C@H]1CCCC[C@@H]1C(=O)N[C@H](CC(=O)N[C@H]1CCCC[C@@H]1C(N)=O)Cc1ccccc1)NC(=O)[C@H]1CCCC[C@@H]1N :: high
NC(=O)[C@H]1CCCC[C@@H]1NC(=O)C[C@H](Cc1c[nH]c2ccccc12)NC(=O)[C@H]1CCCC[C@@H]1NC(=O)[C@H]1CCCC[C@@H]1NC(=O)C[C@H](Cc1c[nH]c2ccccc12)NC(=O)[C@H]1CCCC[C@@H]1N :: high
CC[C@H](C)[C@@H](CC(=O)N[C@H]1CCCC[C@@H]1C(=O)N[C@H]1CCCC[C@@H]1C(=O)N[C@H](CC(=O)N[C@H]1CCCC[C@@H]1C(N)=O)CC(C)C)NC(=O)[C@H]1CCCC[C@@H]1N :: high
CC(C)C[C@@H](CC(=O)N[C@H]1CCCC[C@@H]1C(N)=O)NC(=O)[C@H]1CCCC[C@@H]1NC(=O)[C@H]1CCCC[C@@H]1NC(=O)C[C@H](Cc1c[nH]c2ccccc12)NC(=O)[C@H]1CCCC[C@@H]1N :: high

Using the record for `CC[C@H](C)[C@@H](CC(=O)N[C@H]1CCCC[C@@H]1C(N)=O)NC(=O)[C@H]1CCCC[C@@H]1NC(=O)[C@H]1CCCC[C@@H]1NC(=O)C[C@@H](NC(=O)[C@H]1CCCC[C@@H]1N)[C@@H](C)O` , state its measured Affinity class of probe (high, medium, low) in pull-down. low

###

Target: S100B (Homo sapiens, UniProt P04271)
Construct: made in house; host or cells: Escherichia coli BL21(DE3)
Assay: Competition pull-down with native ligand RSK1 (689–735)
Type: binding
Settings: H14 library; competitor peptide 200 µM; read-out: Surface mapping KD (apparent), competition
Listed next: entries and their corresponding Kd.
Respond with the bare value in µM.

Below, 5 compounds whose answers are already recorded.
CC(C)[C@@H](CC(=O)N[C@H]1CCCC[C@@H]1C(=O)N[C@H]1CCCC[C@@H]1C(=O)N[C@@H](CCC(N)=O)CC(=O)N[C@H]1CCCC[C@@H]1C(N)=O)NC(=O)[C@H]1CCCC[C@@H]1N :: 339
CSCC[C@@H](CC(=O)N[C@H]1CCCC[C@@H]1C(=O)N[C@H]1CCCC[C@@H]1C(=O)N[C@H](CC(=O)N[C@H]1CCCC[C@@H]1C(N)=O)[C@@H](C)O)NC(=O)[C@H]1CCCC[C@@H]1N :: 337
C[C@@H](CC(=O)N[C@H]1CCCC[C@@H]1C(N)=O)NC(=O)[C@H]1CCCC[C@@H]1NC(=O)[C@H]1CCCC[C@@H]1NC(=O)C[C@H](Cc1ccc(O)cc1)NC(=O)[C@H]1CCCC[C@@H]1N :: 436
CSCC[C@@H](CC(=O)N[C@H]1CCCC[C@@H]1C(N)=O)NC(=O)[C@H]1CCCC[C@@H]1NC(=O)[C@H]1CCCC[C@@H]1NC(=O)C[C@H](CC(C)C)NC(=O)[C@H]1CCCC[C@@H]1N :: 163
CSCC[C@@H](CC(=O)N[C@H]1CCCC[C@@H]1C(N)=O)NC(=O)[C@H]1CCCC[C@@H]1NC(=O)[C@H]1CCCC[C@@H]1NC(=O)C[C@H](Cc1c[nH]c2ccccc12)NC(=O)[C@H]1CCCC[C@@H]1N :: 125

Using the record for `CC(C)[C@@H](CC(=O)N[C@H]1CCCC[C@@H]1C(=O)N[C@H]1CCCC[C@@H]1C(=O)N[C@@H](C)CC(=O)N[C@H]1CCCC[C@@H]1C(N)=O)NC(=O)[C@H]1CCCC[C@@H]1N` , state its measured Kd. 393

Using the record for `NC(=O)[C@H]1CCCC[C@@H]1NC(=O)C[C@H](Cc1ccccc1)NC(=O)[C@H]1CCCC[C@@H]1NC(=O)[C@H]1CCCC[C@@H]1NC(=O)C[C@H](CC(=O)O)NC(=O)[C@H]1CCCC[C@@H]1N` , state its measured Kd. 130

Using the record for `CC(C)C[C@@H](CC(=O)N[C@H]1CCCC[C@@H]1C(=O)N[C@H]1CCCC[C@@H]1C(=O)N[C@H](CC(=O)N[C@H]1CCCC[C@@H]1C(N)=O)Cc1ccccc1)NC(=O)[C@H]1CCCC[C@@H]1N` , state its measured Kd. 71

Using the record for `CSCC[C@@H](CC(=O)N[C@H]1CCCC[C@@H]1C(=O)N[C@H]1CCCC[C@@H]1C(=O)N[C@H](CC(=O)N[C@H]1CCCC[C@@H]1C(N)=O)CC(C)C)NC(=O)[C@H]1CCCC[C@@H]1N` , state its measured Kd. 269

###

Target: CaM (Bos taurus)
Construct: made in house; host or cells: E. coli BL21 (DE3)
Test: Pull-down assay with immobilized protein and LSM libraries
Format: binding, bovine
Conditions: H12 library; 1:2 stoichiometry assumed; read-out: Surface mapping KD (apparent)
Listed next: entries and their corresponding Kd.
Respond with the bare value in µM.

CC[C@H](C)[C@@H](CC(=O)N[C@H]1CCC[C@@H]1C(=O)N[C@H]1CCC[C@@H]1C(N)=O)NC(=O)[C@H]1CCC[C@@H]1NC(=O)[C@H]1CCC[C@@H]1NC(=O)C[C@H](CC(N)=O)NC(=O)[C@H]1CCC[C@@H]1NC(=O)[C@H]1CCC[C@@H]1N [H12 NI] :: 214
NC(=O)C[C@@H](CC(=O)N[C@H]1CCC[C@@H]1C(=O)N[C@H]1CCC[C@@H]1C(=O)N[C@H](CC(=O)N[C@H]1CCC[C@@H]1C(=O)N[C@H]1CCC[C@@H]1C(N)=O)Cc1ccc(O)cc1)NC(=O)[C@H]1CCC[C@@H]1NC(=O)[C@H]1CCC[C@@H]1N [H12 NY] :: 364
C[C@@H](CC(=O)N[C@H]1CCC[C@@H]1C(=O)N[C@H]1CCC[C@@H]1C(=O)N[C@H](CC(=O)N[C@H]1CCC[C@@H]1C(=O)N[C@H]1CCC[C@@H]1C(N)=O)Cc1c[nH]c2ccccc12)NC(=O)[C@H]1CCC[C@@H]1NC(=O)[C@H]1CCC[C@@H]1N [H12 AW] :: 234
CC(C)C[C@@H](CC(=O)N[C@H]1CCC[C@@H]1C(=O)N[C@H]1CCC[C@@H]1C(N)=O)NC(=O)[C@H]1CCC[C@@H]1NC(=O)[C@H]1CCC[C@@H]1NC(=O)C[C@@H](NC(=O)[C@H]1CCC[C@@H]1NC(=O)[C@H]1CCC[C@@H]1N)[C@@H](C)O [H12 TL] :: 110
CC(C)C[C@@H](CC(=O)N[C@H]1CCC[C@@H]1C(=O)N[C@H]1CCC[C@@H]1C(N)=O)NC(=O)[C@H]1CCC[C@@H]1NC(=O)[C@H]1CCC[C@@H]1NC(=O)C[C@H](CCCNC(=N)N)NC(=O)[C@H]1CCC[C@@H]1NC(=O)[C@H]1CCC[C@@H]1N [H12 RL] :: 252
C[C@@H](O)[C@@H](CC(=O)N[C@H]1CCC[C@@H]1C(=O)N[C@H]1CCC[C@@H]1C(=O)N[C@H](CC(=O)N[C@H]1CCC[C@@H]1C(=O)N[C@H]1CCC[C@@H]1C(N)=O)Cc1ccccc1)NC(=O)[C@H]1CCC[C@@H]1NC(=O)[C@H]1CCC[C@@H]1N [H12 TF] :: 90
C[C@@H](CC(=O)N[C@H]1CCC[C@@H]1C(=O)N[C@H]1CCC[C@@H]1C(N)=O)NC(=O)[C@H]1CCC[C@@H]1NC(=O)[C@H]1CCC[C@@H]1NC(=O)C[C@H](Cc1c[nH]c2ccccc12)NC(=O)[C@H]1CCC[C@@H]1NC(=O)[C@H]1CCC[C@@H]1N [H12 WA] :: 303

Let us move to another entry and its Kd.
Using the record for CC[C@H](C)[C@@H](CC(=O)N[C@H]1CCC[C@@H]1C(=O)N[C@H]1CCC[C@@H]1C(N)=O)NC(=O)[C@H]1CCC[C@@H]1NC(=O)[C@H]1CCC[C@@H]1NC(=O)C[C@H](CO)NC(=O)[C@H]1CCC[C@@H]1NC(=O)[C@H]1CCC[C@@H]1N [H12 SI] , state its measured Kd. 252
